Numbers sourced from ChEMBL document CHEMBL4184160.

Target: Epidermal growth factor receptor (Homo sapiens, UniProt P00533, C797S/T790M)
Sequence (P00533 25-1210 T790M/C797S limits assumed): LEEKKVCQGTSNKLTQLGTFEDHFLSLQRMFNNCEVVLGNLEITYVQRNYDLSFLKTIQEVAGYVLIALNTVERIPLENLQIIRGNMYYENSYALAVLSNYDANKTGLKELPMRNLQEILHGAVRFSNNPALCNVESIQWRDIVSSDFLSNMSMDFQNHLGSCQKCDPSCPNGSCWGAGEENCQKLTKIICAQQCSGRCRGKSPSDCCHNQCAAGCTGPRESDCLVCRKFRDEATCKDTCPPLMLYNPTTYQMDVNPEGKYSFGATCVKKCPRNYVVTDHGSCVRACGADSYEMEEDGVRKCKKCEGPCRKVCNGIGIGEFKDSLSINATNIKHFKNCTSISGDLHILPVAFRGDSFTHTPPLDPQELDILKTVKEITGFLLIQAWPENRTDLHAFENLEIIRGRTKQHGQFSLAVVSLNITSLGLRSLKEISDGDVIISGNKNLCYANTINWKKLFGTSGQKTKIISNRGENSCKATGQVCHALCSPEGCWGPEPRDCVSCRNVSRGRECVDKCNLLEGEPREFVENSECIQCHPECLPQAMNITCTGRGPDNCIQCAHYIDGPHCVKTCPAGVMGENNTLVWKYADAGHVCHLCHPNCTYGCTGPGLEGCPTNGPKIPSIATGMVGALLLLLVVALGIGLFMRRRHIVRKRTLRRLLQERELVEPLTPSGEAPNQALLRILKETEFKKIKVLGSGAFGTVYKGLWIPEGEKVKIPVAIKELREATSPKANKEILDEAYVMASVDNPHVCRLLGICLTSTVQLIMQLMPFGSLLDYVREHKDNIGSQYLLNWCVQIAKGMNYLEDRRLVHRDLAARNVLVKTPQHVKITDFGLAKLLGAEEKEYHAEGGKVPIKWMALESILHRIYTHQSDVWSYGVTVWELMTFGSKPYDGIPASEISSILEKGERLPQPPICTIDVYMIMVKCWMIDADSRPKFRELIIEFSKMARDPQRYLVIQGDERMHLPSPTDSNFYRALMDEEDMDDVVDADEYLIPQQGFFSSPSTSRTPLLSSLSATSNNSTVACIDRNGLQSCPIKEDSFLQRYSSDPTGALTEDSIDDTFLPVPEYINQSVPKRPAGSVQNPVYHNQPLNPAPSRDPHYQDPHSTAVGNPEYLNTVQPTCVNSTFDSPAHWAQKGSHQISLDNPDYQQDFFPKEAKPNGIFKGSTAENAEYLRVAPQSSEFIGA
Assay: Inhibition of N-terminal GST-fused human EGFR cytoplasmic domain T790M/C797S mutant expressed in baculovirus expression system using TK-substrate after 20 mins by HTRF KinEASE-TK assay
pIC50: −log10 of the molar value.
Outcome Measure: pIC50

* C=CC(=O)N1CCC[C@@H](n2nc(-c3cccc4ccccc34)c3c(N)ncnc32)C1 | 8.72
* C=CC(=O)N1CCC[C@@H](n2nc(-c3cn(C)c4ccccc34)c3c(N)ncnc32)C1 | 8.60

* * *

Entries with their measured GI50, system Epidermal growth factor receptor (Homo sapiens), P00533 [UNDEFINED MUTATION]:
Outcome Measure: GI50 (nM)

* COc1cc(N2CCC(N3CCN(C)CC3)CC2)ccc1Nc1ncnc(Nc2ccccc2S(=O)(=O)C(C)C)n1 | 1510
* COc1cc(N2CCC(N)CC2)ccc1Nc1ncc(Cl)c(-c2c[nH]c3ccccc23)n1 | 132
* Cc1cc(Nc2ncc(Cl)c(Nc3ccccc3S(=O)(=O)C(C)C)n2)c(OC(C)C)cc1C1CCNCC1 | 780
* COc1cc(N2CCC(N(C)C)CC2)ccc1Nc1ncc(Cl)c(Nc2ccccc2P(C)(C)=O)n1 | 59.1
